- System under test: recombinant CETP (rCETP) (Homo sapiens)
- Sequence (P11597 18-493): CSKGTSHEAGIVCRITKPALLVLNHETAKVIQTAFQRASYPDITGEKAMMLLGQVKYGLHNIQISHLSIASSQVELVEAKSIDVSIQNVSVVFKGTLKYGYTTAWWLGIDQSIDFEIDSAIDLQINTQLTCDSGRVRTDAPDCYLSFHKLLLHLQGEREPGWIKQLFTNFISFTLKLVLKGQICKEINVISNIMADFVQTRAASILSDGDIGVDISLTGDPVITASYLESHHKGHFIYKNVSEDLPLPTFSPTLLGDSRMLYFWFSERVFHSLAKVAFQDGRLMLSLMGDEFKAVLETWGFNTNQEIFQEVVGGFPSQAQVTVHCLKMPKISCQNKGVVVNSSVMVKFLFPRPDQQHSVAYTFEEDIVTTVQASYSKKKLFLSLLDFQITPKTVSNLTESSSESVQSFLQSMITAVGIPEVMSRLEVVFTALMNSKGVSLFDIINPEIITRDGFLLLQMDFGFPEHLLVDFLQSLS
- Experimental protocol: RTA assay using recombinant CETP (2% RTA)
- Type: biochemical
- Conditions: RTA assay in 2% human serum; read-out: IC50
# note: exactly 50 nM is not below, so it is Criterion not met; use Criterion met for IC50 strictly under it

is_below(IC50, 50 nM) for `CCOC(=O)C[C@@H]1CCc2cc(OC)c(-c3ccc(N4CCC4)nc3CN3C(=O)O[C@H](c4cc(C)cc(C)c4)[C@@H]3C)cc21` ?
Criterion not met

Note, next up: `COC(=O)CCc1ccc(OC)c(-c2cnc(N3CC(F)C3)nc2CN2C(=O)O[C@H](c3cc(C(F)(F)F)cc(C(F)(F)F)c3)[C@@H]2C)c1`
Criterion met

Note, next up: `COc1ccc(CC(C)(C)C(=O)O)cc1-c1ccc(N2CCC2)nc1CN1C(=O)O[C@H](c2cc(C(F)(F)F)cc(C(F)(F)F)c2)[C@@H]1C`
Criterion met

Note, next up: `COc1ccc(C(C)(C)CC(=O)O)cc1-c1ccc(N2CCC2)nc1CN1C(=O)O[C@H](c2cc(C)cc(C)c2)[C@@H]1C`
Criterion not met

Note, next up: `COc1ccc([C@H]2CC[C@H](C(=O)OC)CC2)cc1-c1ccc(N2CCC2)nc1CN1C(=O)O[C@H](c2cc(C(F)(F)F)cc(C(F)(F)F)c2)[C@@H]1C`
Criterion met

Note, next up: `COc1ccc(CC(C)(C)C(=O)OC(C)(C)C)cc1-c1ccc(N2CCC2)nc1CN1C(=O)O[C@H](c2cccc(C(F)(F)F)c2)[C@@H]1C`
Criterion not met

Note, next up: `COc1c(F)cc(-c2ccc(C(=O)O)cc2C)cc1-c1c(C)cc(N2CCC2)nc1CN1C(=O)O[C@H](c2cc(C(F)(F)F)cc(C(F)(F)F)c2)[C@@H]1C`
Criterion met

Note, next up: `CCOC(=O)[C@@H]1C[C@H]1c1ccc(OC)c(-c2ccc(N3CCC3)nc2CN2C(=O)O[C@H](c3cccc(C(F)(F)F)c3)[C@@H]2C)c1`
Criterion met

Note, next up: COc1ccc(C2C[C@H]2C(=O)O)cc1-c1cnc(N2CCC2)nc1CN1C(=O)O[C@H](c2cc(C(F)(F)F)cc(C(F)(F)F)c2)[C@@H]1C (stereo partly drawn)
Criterion not met

Note, next up: `COc1ccc(CC(=O)O)cc1-c1c(C)cc(N2CCC2)nc1CN1C(=O)O[C@H](c2cc(C(F)(F)F)cc(C(F)(F)F)c2)[C@@H]1C`
Criterion met

Note, next up: `COc1ccc(-c2nc(C(=O)O)cs2)cc1-c1ccc(N2CCC2)nc1CN1C(=O)O[C@H](c2cc(C(F)(F)F)cc(C(F)(F)F)c2)[C@@H]1C`
Criterion not met
